assay: autophagy modulators in MEF cells, primary screen, imaging, high-content, MEF GFP-LC3 (AID 463193); conditions: MEF GFP-LC3 puncta imaging, at 10 µM; measured here: cell loss, nuclei count;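 for toxicity: cell loss after 18 h compound exposure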
The campaign covered roughly 190,000 compounds. About 1,900 (1%) were called active. This excerpt belongs to a sample that is enriched for actives.
Property Measured: toxicity (%)
Give the quantity in %, number only.

Check out these entries, answers already filled in.
[[record]]
compound = "CCOC(=O)Cc1ncccc1C(=O)Nc1ccc(OC)cc1"
result_number = -9.63

[[record]]
compound = "COC(=O)c1ccc(C(=O)OC)c(NC(=S)N2CCN(c3cc(Cl)ccc3C)CC2)c1"
result_number = 21.9

[[record]]
compound = "O=C(c1cccc([N+](=O)[O-])c1)N1CCN(C(=O)c2ccco2)CC1"
result_number = 7.8

[[record]]
compound = "C=CCNC(=O)CCCOc1cccc(C)c1"
result_number = 16.1

[[record]]
compound = "C=C1c2cc(CC)ccc2NC(=O)N1c1ccc(C)cc1"
result_number = -2.35

[[record]]
compound = "COc1ccc(N2CCN(C(=O)CNS(=O)(=O)c3ccc(C)c(C)c3)CC2)cc1"
result_number = -10.1

[[record]]
compound = "Cc1ccc(-c2nnc(-c3ccc(NC(=O)c4cccs4)cc3)o2)cc1"
result_number = -19.8

[[record]]
compound = "CC(Sc1nc2ccccc2c(=O)n1Cc1ccco1)C(=O)c1ccccc1 (centres undefined)"
result_number = -5.88


API: the following record is the query input.
Would you kindly share the measured toxicity for COc1ccc(CC(=O)Nc2ccc(-c3nnc(-c4ccc(C)cc4)o3)cc2)cc1 ?
9.61

====

assay: autophagy modulators in MEF cells, primary screen, imaging, high-content, MEF GFP-LC3 (AID 463193); details: MEF GFP-LC3 puncta imaging, at 10 µM; measured here: cell loss, nuclei count;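 for toxicity: cell loss after 18 h compound exposure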
The whole screen tested about 190,000 compounds, of which about 1,900 (1%) were called active. For the sample, actives were picked, then their nearest neighbours and some compounds at random.
Property Measured: toxicity (%)
Give the quantity in %, number only.

Check out these entries, answers already filled in.
[[record]]
compound = "Cc1ccc(N=Cc2c(O)cc(C)oc2=O)c(C)c1"
property_measured = "toxicity"
unit_string = "%"
result_number = 4.32

[[record]]
compound = "O=C(NCCc1c[nH]c2ccccc12)C(=O)NCC1CCCO1 (configuration not stated)"
property_measured = "toxicity"
unit_string = "%"
result_number = 4.43

[[record]]
compound = "O=C(N/N=C/c1coc2ccccc2c1=O)c1cc2ccccc2o1"
property_measured = "toxicity"
unit_string = "%"
result_number = 5.54


Would you kindly share the measured toxicity for CSc1nc(N)c(C#N)c(-c2ccccc2Cl)c1C#N ?
7.01

Would you kindly share the measured toxicity for CCCN1CC=C2C(C#N)=C(N)C(C#N)(C#N)C(c3cc(OC)ccc3OC)C2C1 (configuration not stated) ?
9.7

Would you kindly share the measured toxicity for O=[N+]([O-])c1ccc(Sc2n[nH]c(-c3ccco3)n2)nc1 ?
4.9

====

assay: autophagy modulators in MEF cells, primary screen, imaging, high-content, MEF GFP-LC3 (AID 463193); settings: MEF GFP-LC3 puncta imaging, at 10 µM; stronger effect = higher value;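 for % cells with GFP-LC3 spots: spot-positive cell cutoff set from DMSO-treated cells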
The whole screen tested about 190,000 compounds, of which about 1,900 (1%) were called active. What follows is part of a selection rich in actives, with near analogues and random picks from the rest.
# reported % cells with GFP-LC3 spots; entries follow
Give the quantity in %, number only.

[[record]]
line_notation = "CC(C)NC(=O)NC(=O)CSc1nnc(-c2ccccc2F)n1N"
result_number = 4.07


Would you kindly share the measured % cells with GFP-LC3 spots for O=C(NNC(=O)c1cc2c(s1)CCCC2)c1ccccc1 ?
9.94

Would you kindly share the measured % cells with GFP-LC3 spots for COc1cccc(NC(=S)N(CCc2c(C)[nH]c3ccccc23)Cc2ccco2)c1 ?
9.78

====

assay: autophagy modulators in MEF cells, primary screen, imaging, high-content, MEF GFP-LC3 (AID 463193); conditions: MEF GFP-LC3 puncta imaging, at 10 µM; stronger effect = higher value;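 for % cells with GFP-LC3 spots: spot-positive cell cutoff set from DMSO-treated cells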
Hit rate of the full screen: of about 190,000 compounds, about 1,900 (1%) were called active. This is one part of a sample in which actives are shown more often than they occur.
# reported % cells with GFP-LC3 spots; entries follow

[[record]]
compound = "O=c1c2ccccc2nc(CSc2nnnn2-c2ccccc2)n1-c1ccccc1"
result = "39.8% (active)"

[[record]]
compound = "Cc1ccc(N2CCN(S(=O)(=O)N(C)C)CC2)cc1Cl"
result = "10.8% (inactive)"

[[record]]
compound = "CCCN(CCC)C(=S)Nc1cc(C(=O)OC)ccc1C(=O)OC"
result = "12.3% (inactive)"

[[record]]
compound = "O=C(Cn1cc2c(n1)CCCCC2)NCCN1CCOCC1"
result = "5.99% (inactive)"

[[record]]
compound = "CC(C)NC(=O)NCCCCCCS(C)=O (centres undefined)"
result = "22.5% (inactive)"

[[record]]
compound = "Cc1ccc(Nc2nc(CSc3nnnn3-c3ccccc3)cc(=O)[nH]2)cc1"
result = "3.58% (inactive)"


Would you kindly share the measured % cells with GFP-LC3 spots for Cc1cc(C)n(-c2cc(Oc3ccccc3)ncn2)n1 ?
4.54% (inactive)

Would you kindly share the measured % cells with GFP-LC3 spots for Cc1ccc(-n2cc(CN(C)Cc3nccn3C)c(-c3cccc(C)c3)n2)cc1 ?
1% (inactive)

Would you kindly share the measured % cells with GFP-LC3 spots for O=c1c2ccccc2nnn1CSc1nnnn1-c1ccccc1 ?
7.02% (inactive)

====

# reported % cells with GFP-LC3 spots; entries follow
experiment: autophagy modulators in MEF cells, primary screen, imaging, high-content, MEF GFP-LC3 (AID 463193); conditions: MEF GFP-LC3 puncta imaging, at 10 µM; stronger effect = higher value;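 for % cells with GFP-LC3 spots: spot-positive cell cutoff set from DMSO-treated cells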
Out of some 190,000 compounds screened, about 1,900 (1%) were called active. The sample holds actives, similar compounds and a random draw of the others, so the mix is not that of the screen.
Give the quantity in %, number only.

Check out these entries, answers already filled in.
[[record]]
compound = "CCC(C)(C)NC(=O)C(c1ccccn1)N(C(=O)c1csnn1)c1ccccc1 (centres undefined)"
property_measured = "% cells with GFP-LC3 spots"
result_number = 3.17

[[record]]
compound = "O=C(c1ccc(F)cc1)n1cc(C(=S)N2CCOCC2)c2ccccc21"
property_measured = "% cells with GFP-LC3 spots"
result_number = 8.35

[[record]]
compound = "CC(C)(C)NC(=O)CN(C(=O)c1ccc(Cl)nc1)c1cccc2ccccc12"
property_measured = "% cells with GFP-LC3 spots"
result_number = 0.133


API: the following record is the query input.
Would you kindly share the measured % cells with GFP-LC3 spots for Cc1cccc(N(C(=O)Cc2cccs2)C(C(=O)NCc2ccco2)c2ccncc2)c1 (centres undefined) ?
0.45

====

# reported toxicity; entries follow
experiment: autophagy modulators in MEF cells, primary screen, imaging, high-content, MEF GFP-LC3 (AID 463193); conditions: MEF GFP-LC3 puncta imaging, at 10 µM; measured here: cell loss, nuclei count;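 for toxicity: cell loss after 18 h compound exposure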
Screen size: about 190,000 compounds; about 1,900 (1%) were called active. This is one part of a sample in which actives are shown more often than they occur.
Give the quantity in %, number only.

Check out these entries, answers already filled in.
[[record]]
compound = "Cc1cccc2cc3c(N)c(C(=O)N4CCCc5ccccc54)sc3nc12"
property_measured = "toxicity"
result_number = 33.8

[[record]]
compound = "O=C(Cc1ccc(Cl)cc1)NCc1nc(-c2ccccc2)no1"
property_measured = "toxicity"
result_number = 18

[[record]]
compound = "Cc1ccc(NC(=O)c2oc(=O)c3ccccc3c2-c2ccccc2)c(C)c1"
property_measured = "toxicity"
result_number = -1.17

[[record]]
compound = "CC(C)(C)NC(=O)CN(C(=O)c1csnn1)c1ccccc1-c1ccccc1"
property_measured = "toxicity"
result_number = 5.01

[[record]]
compound = "CCCCN(CC)C(=O)c1ccccc1Oc1ccccc1"
property_measured = "toxicity"
result_number = -0.889


API: the following record is the query input.
Would you kindly share the measured toxicity for COc1ccc(Nc2cc(C)nc(-n3nc(C)cc3C)n2)cc1 ?
48.3

====

experiment: autophagy modulators in MEF cells, primary screen, imaging, high-content, MEF GFP-LC3 (AID 463193); conditions: MEF GFP-LC3 puncta imaging, at 10 µM
Screen size: about 190,000 compounds; about 1,900 (1%) were called active.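 How the source made its calls: active means percentage of spot-positive cells more than 3 SD above its plate mean, without a fluorescence outlier flag or 80% toxicity; inconclusive means no clear call, values can overlap the other calls; inactive means the rest.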 What follows is part of a selection rich in actives, with near analogues and random picks from the rest.
Entry note: the call must match one of t = active, f = inactive

[[record]]
compound = "Nc1nonc1-c1nc2ccccc2n1Cc1ccc(F)cc1"
label_value = "f"

[[record]]
compound = "O=C(OCC1O[C@@H](OC(=O)c2cc(O)c(O)c(O)c2)[C@@H](OC(=O)c2cc(O)c(O)c(O)c2)[C@@H](OC(=O)c2cc(O)c(O)c(O)c2)[C@@H]1OC(=O)c1cc(O)c(O)c(O)c1)c1cc(O)c(O)c(O)c1 (stereo partly drawn)"
label_value = "f"

[[record]]
compound = "COc1ccc(C(CC(=O)Nc2ccc(C)cc2)NC(=O)C(F)(F)F)cc1 (stereo not drawn)"
label_value = "f"

[[record]]
compound = "COCCN(CCOC)C(=S)Nc1ccccc1Cl"
label_value = "f"

[[record]]
compound = "O=C(c1cccc([N+](=O)[O-])c1)N1CCN(C(=O)c2ccco2)CC1"
label_value = "f"


In this assay, the call recorded for CCc1ccc2c(c1)cc(CN(C(=S)Nc1ccccc1Cl)C1CC1)c1nnnn12 was what?
t

In this assay, the call recorded for CCOc1ccc2c(c1)cc(CN(C(=O)CC)C1CCCCC1)c1nnnn12 was what?
f

This collection of values is drawn from PubChem BioAssay AID463193.
